Biological target: T1, Recombinant human Dkk-1 (R&D Systems cat no. 1096-DK/CF), 10xHis tag at the C terminal (human, UniProt O94907 32-266)
T1 construct: the actual N-terminus of the purified protein is marked in bold italic after residue 30, but the mark is an image lost in the text; also called rhuDkk-1; hDkk-1
T1 sequence: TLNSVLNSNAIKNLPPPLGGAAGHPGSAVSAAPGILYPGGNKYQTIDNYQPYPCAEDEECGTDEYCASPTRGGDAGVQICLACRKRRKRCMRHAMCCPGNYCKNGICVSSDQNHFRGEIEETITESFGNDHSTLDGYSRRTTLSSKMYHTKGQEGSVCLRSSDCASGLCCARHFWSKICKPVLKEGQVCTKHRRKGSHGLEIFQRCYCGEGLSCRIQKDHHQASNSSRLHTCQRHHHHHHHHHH
Experiment: theoretical: koff / estimated kon 1e6 1/Ms (SPR screening 37C)
In this section we review reported Kd values for a set of binders.
Give the value, in units of nM, as a plain number.

Consider the worked cases shown below.
L2.1G4 (Fab, V domains shown, tested as Fab (E. coli lysate, screening mode); human kappa CL and IgG2 CH1 not included here) VH: EVQLVESGGGLVQPGGSLRLSCAASGFTFSSYAISWVRQAPGKGLEWVASVSGWFDTYYPDSVKGRFTISRDNAKNSLYLQMNSLRAEDTAVYYCATSLENYAFDKWGQGTTVTVSS VL: EIVLTQSPATLSLSPGERATLSCRASESVDDFGISFMNWYQQKPGQAPRLLIYAASKQGSGIPARFSGSGSGTDFTLTISSLEPEDFAVYYCQQSKEVPPTFGGGTKVEIK = 3.12
SL3.1G2 (Fab, V domains shown, tested as Fab (E. coli lysate, screening mode); human kappa CL and IgG2 CH1 not included here) VH: EVQLVESGGGLVQPGGSLRLSCAASGFTFSSYAISWVRQAPGKGLEWVASVSGGGRTYYPDSVKGRFTISRDNAKNSLYLQMNSLRAEDTAVYYCATSLENYAFDYWGQGTTVTVSS VL: EIVLTQSPATLSLSPGERATLSCRASESVDDFGISFMNWYQQKPGQAPRLLIYAASKQGSGIPARFSGSGSGTDFTLTISSLEPEDFAVYYCQQSIEVPPTFGGGTKVEIK = 8.72
L2.P4.D1 (Fab, V domains shown, tested as Fab (E. coli lysate, screening mode); human kappa CL and IgG2 CH1 not included here) VH: EVQLVESGGGLVQPGGSLRLSCAASGFTFSSYAISWVRQAPGKGLEWVASVSGTGLGFQTYYPDSVKGRFTISRDNAKNSLYLQMNSLRAEDTAVYYCATSLDNYAFDYWGQGTTVTVSS VL: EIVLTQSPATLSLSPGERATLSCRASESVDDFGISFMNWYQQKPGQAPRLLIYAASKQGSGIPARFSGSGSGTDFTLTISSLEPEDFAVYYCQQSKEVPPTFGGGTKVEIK = 2.88
24m5 (Fab, V domains shown, tested as Fab (E. coli lysate, screening mode); human kappa CL and IgG2 CH1 not included here) VH: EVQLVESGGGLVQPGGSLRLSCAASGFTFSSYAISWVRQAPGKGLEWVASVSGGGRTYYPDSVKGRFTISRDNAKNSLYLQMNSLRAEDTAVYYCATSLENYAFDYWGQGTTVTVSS VL: EIVLTQSPATLSLSPGERATLSCRASESVDDFGISFMNWYQQKPGQAPRLLIYAGTKQGSGIPARFSGSGSGTDFTLTISSLEPEDFAVYYCQQSKEVPPTFGGGTKVEIK = 8.74

As a next step, examine the binder that follows.
In: I have this binder here, SL3.3F4 (Fab, V domains shown, tested as Fab (E. coli lysate, screening mode); human kappa CL and IgG2 CH1 not included here) VH: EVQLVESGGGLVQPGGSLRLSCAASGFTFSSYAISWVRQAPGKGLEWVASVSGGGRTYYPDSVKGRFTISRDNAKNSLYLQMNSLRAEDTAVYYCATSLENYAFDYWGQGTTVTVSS VL: EIVLTQSPATLSLSPGERATLSCRASESVDDFGISFMNWYQQKPGQAPRLLIYAASKQGSGIPARFSGSGSGTDFTLTISSLEPEDFAVYYCQQSSEVPPTFGGGTKVEIK , and I need its recorded Kd.
Out: 11.8

The reported numbers originate from patent US20130071921A1.
